Tested on: ATP;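 note: ATP exposure 15 min at 22 °C before imaging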
Test summary: switch fluorescence ratio, 500 uM ATP over buffer (Cy3 cluster intensity, sum of 5 cycles each) (fold (ratio)); higher = stronger signal-on switching upon ATP binding; sequences stand for … in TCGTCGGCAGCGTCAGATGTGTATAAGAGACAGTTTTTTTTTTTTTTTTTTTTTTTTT…TC
Measurement parameters: aptamer strand: ATP DNA aptamer (quencher-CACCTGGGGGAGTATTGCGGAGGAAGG + anchor), 100 nM annealed; ATP concentration: 500 uM
Assay endpoint: switch fluorescence ratio
Answer field: number only, no words.

### Prompt State recorded switch fluorescence ratio with ATP, entry `TTTATTTACG` , no comment.
### Response 1.03

### Prompt State recorded switch fluorescence ratio with ATP, entry `GATTGAATGG` , no comment.
### Response 0.985

### Prompt State recorded switch fluorescence ratio with ATP, entry `GGGGATGCTG` , no comment.
### Response 0.902

### Prompt State recorded switch fluorescence ratio with ATP, entry `GCGTTGCCAG` , no comment.
### Response 0.982

### Prompt State recorded switch fluorescence ratio with ATP, entry `ACGACTTTTG` , no comment.
### Response 0.995

### Prompt State recorded switch fluorescence ratio with ATP, entry `GATGAGCCGG` , no comment.
### Response 1

### Prompt State recorded switch fluorescence ratio with ATP, entry `TTTTGCGTTT` , no comment.
### Response 0.992

### Prompt State recorded switch fluorescence ratio with ATP, entry `CTCTGCGGTT` , no comment.
### Response 1.89

====

Tested on: ATP;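 note: ATP exposure 15 min at 22 °C before imaging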
Test summary: switch fluorescence ratio, 500 uM ATP over buffer (Cy3 cluster intensity, sum of 5 cycles each) (fold (ratio)); higher = stronger signal-on switching upon ATP binding; sequences stand for … in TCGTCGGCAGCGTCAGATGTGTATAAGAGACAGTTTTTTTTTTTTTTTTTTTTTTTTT…TC
Measurement parameters: aptamer strand: ATP DNA aptamer (quencher-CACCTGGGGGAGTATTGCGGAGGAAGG + anchor), 100 nM annealed; ATP concentration: 500 uM
So basically: switch fluorescence ratio at 1 or higher? That is met. Lower than 1? That is not met.

### Prompt Does the sequence `ATGTATATGC` have recorded switch fluorescence ratio that is 1 or more?
### Response met

### Prompt Does the sequence `GAGGAAGGAC` have recorded switch fluorescence ratio that is 1 or more?
### Response met

### Prompt Does the sequence `GTAGTAAAAC` have recorded switch fluorescence ratio that is 1 or more?
### Response met

### Prompt Does the sequence `CGGAGGAGCA` have recorded switch fluorescence ratio that is 1 or more?
### Response not met

====

System: ATP;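 note: ATP exposure 15 min at 22 °C before imaging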
Test summary: switch fluorescence ratio, 500 uM ATP over buffer (Cy3 cluster intensity, sum of 5 cycles each) (fold (ratio)); higher = stronger signal-on switching upon ATP binding; sequences stand for … in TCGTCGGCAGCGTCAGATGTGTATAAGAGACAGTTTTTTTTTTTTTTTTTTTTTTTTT…TC
Measurement parameters: aptamer strand: ATP DNA aptamer (quencher-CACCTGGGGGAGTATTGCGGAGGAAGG + anchor), 100 nM annealed; ATP concentration: 500 uM
Consider the following sequences; for each one, report its switch fluorescence ratio.
Answer field: number only, no words.

### Prompt Return value of switch fluorescence ratio for input `GCATGACTGT` , no commentary.
### Response 1.01

### Prompt Return value of switch fluorescence ratio for input `GGTTTATAAA` , no commentary.
### Response 0.971

### Prompt Return value of switch fluorescence ratio for input `ACAGAGGCAC` , no commentary.
### Response 1.02

### Prompt Return value of switch fluorescence ratio for input `CGGGGGATGG` , no commentary.
### Response 1.01

### Prompt Return value of switch fluorescence ratio for input `GGAATGTAGG` , no commentary.
### Response 0.99

### Prompt Return value of switch fluorescence ratio for input `GCTGCTTGCG` , no commentary.
### Response 1

### Prompt Return value of switch fluorescence ratio for input `CAATTGGACA` , no commentary.
### Response 0.982

### Prompt Return value of switch fluorescence ratio for input `TAGGTCCGTT` , no commentary.
### Response 0.988

### Prompt Return value of switch fluorescence ratio for input `CCCATGTTAA` , no commentary.
### Response 0.993

### Prompt Return value of switch fluorescence ratio for input `ATGGAAGGAT` , no commentary.
### Response 1

### Prompt Return value of switch fluorescence ratio for input `GCGTTCAGGC` , no commentary.
### Response 0.994

### Prompt Return value of switch fluorescence ratio for input `ATGGGCTCCG` , no commentary.
### Response 0.974

### Prompt Return value of switch fluorescence ratio for input `TATCATGTTG` , no commentary.
### Response 0.999

### Prompt Return value of switch fluorescence ratio for input `TAGGGAAAAT` , no commentary.
### Response 0.983

### Prompt Return value of switch fluorescence ratio for input `GTTTATGAGC` , no commentary.
### Response 1

====

Consider the following sequences; for each one, report its switch fluorescence ratio.
Tested on: ATP;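 note: ATP exposure 15 min at 22 °C before imaging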
Test summary: switch fluorescence ratio, 500 uM ATP over buffer (Cy3 cluster intensity, sum of 5 cycles each) (fold (ratio)); higher = stronger signal-on switching upon ATP binding; sequences stand for … in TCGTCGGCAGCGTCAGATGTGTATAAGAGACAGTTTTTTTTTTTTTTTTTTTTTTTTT…TC
Measurement parameters: aptamer strand: ATP DNA aptamer (quencher-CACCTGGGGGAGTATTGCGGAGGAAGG + anchor), 100 nM annealed; ATP concentration: 500 uM
Answer field: number only, no words.

### Prompt Return value of switch fluorescence ratio for input `AATGTTAGGC` , no commentary.
### Response 1.02

### Prompt Return value of switch fluorescence ratio for input `GGGAAAAAAT` , no commentary.
### Response 1

### Prompt Return value of switch fluorescence ratio for input `ATGTTAGTGG` , no commentary.
### Response 1.01

### Prompt Return value of switch fluorescence ratio for input `AATAGGTAG` , no commentary.
### Response 0.976

### Prompt Return value of switch fluorescence ratio for input `TTGTAAGATC` , no commentary.
### Response 1.02

### Prompt Return value of switch fluorescence ratio for input `ATTGGGGAGA` , no commentary.
### Response 1.04

### Prompt Return value of switch fluorescence ratio for input `CGATATAAGT` , no commentary.
### Response 1

### Prompt Return value of switch fluorescence ratio for input `GAAAAAGCGT` , no commentary.
### Response 1.07

### Prompt Return value of switch fluorescence ratio for input `GGAGAACTTA` , no commentary.
### Response 1.04

### Prompt Return value of switch fluorescence ratio for input `TAGCAGGTTA` , no commentary.
### Response 1

### Prompt Return value of switch fluorescence ratio for input `ATGAGTCATT` , no commentary.
### Response 0.987

### Prompt Return value of switch fluorescence ratio for input `GATTGCGGGC` , no commentary.
### Response 1.03

### Prompt Return value of switch fluorescence ratio for input `TTGAATTTGG` , no commentary.
### Response 0.979

### Prompt Return value of switch fluorescence ratio for input `CGCGATCTGT` , no commentary.
### Response 1.18

### Prompt Return value of switch fluorescence ratio for input `TCTGAAAACT` , no commentary.
### Response 1.06

### Prompt Return value of switch fluorescence ratio for input `CGATGTCACG` , no commentary.
### Response 1

### Prompt Return value of switch fluorescence ratio for input `GGAAAAATCG` , no commentary.
### Response 1.01

### Prompt Return value of switch fluorescence ratio for input `AATATAGCGT` , no commentary.
### Response 0.969

### Prompt Return value of switch fluorescence ratio for input `GTGGAGGGGG` , no commentary.
### Response 0.984
